- Tested on: RXF 393 renal
- protocol.summary: NCI tumour cell line growth inhibition, 48 h

>  <compound>
CN(C)C(F)=PC(F)(F)F (stereo not drawn)

>  <TGI>
> 100 µM

$$$$
>  <compound>
COc1cc(C(=O)C2CC3(CCC2(O)c2cc(OC)c(OC)c(OC)c2)CC(=O)Nc2ccccc2C3=O)cc(OC)c1OC (stereo not drawn)

>  <TGI>
> 100 µM

$$$$
>  <compound>
O=C(Nc1nc2ncn(CCO)c2c(=O)[nH]1)c1ccccc1

>  <TGI>
> 100 µM

$$$$
>  <compound>
C[C@H](NC(=O)CNC(=O)CCCCCC(=O)NCC(=O)N[C@@H](C)C(=O)OCc1ccccc1)C(=O)OCc1ccccc1

>  <TGI>
> 100 µM

$$$$
>  <compound>
CC(C)N(Cc1ccc(F)cc1)c1ccc(CO)c(Cl)c1

>  <TGI>
19.6 µM

$$$$
>  <compound>
Oc1cccnc1/C=N/OCc1ccccc1

>  <TGI>
72.8 µM

$$$$
>  <compound>
O=C1C(Sc2ccc3ccccc3c2)=C(Sc2ccc3ccccc3c2)C(=O)c2ccccc21

>  <TGI>
32.6 µM

$$$$
>  <compound>
Cc1ccc(S(=O)(=O)N2CCN(S(=O)(=O)c3ccc(C)cc3)CCN(S(=O)(=O)c3ccc(C)cc3)Cc3cc(Br)c(Br)cc3CN(S(=O)(=O)c3ccc(C)cc3)CC2)cc1

>  <TGI>
> 100 µM

$$$$
